# target of assay: α-glycosidase
# procedure details: α-glycosidase inhibitory activity (PNPG method)
# Assay type: biochemical
# condition parameters: yeast enzyme EC 3.2.1.20
readout: IC50

### Prompt Requested read-out: IC50. Entry: CC(C)C1C2OC(=O)C1C1CC=CC1(C)C2NC=O (stereo not drawn) [Compound 1, Dendroterpene A]
### Response > 1000 µM

---

# target of assay: α-glycosidase
# procedure details: α-glycosidase inhibitory activity (PNPG method)
# condition parameters: yeast enzyme EC 3.2.1.20
readout: pIC50
Note: pIC50 values are expressed as the negative base-10 logarithm of concentration in M.

1) CC(C)C1C2OC(=O)C1C1CCC3C(=O)OC2C31C (stereo not drawn) [Compound 3, Dendroterpene C]	3.01

Now examine the next entry.
### Prompt Given the molecule COc1cccc(CC2C3=C(Oc4c2cc(O)c(O)c4OC)C(=O)c2cc(O)c4cc(O)ccc4c2C3=O)c1 (stereo not drawn) [Compound 6, dendrocandin V] , what is its reported pIC50?
### Response 3.17
